Test system: MDA-MB-435 melanoma
PROCEDURE DETAILS: NCI-60 one-dose screen, 48 h (100 = growth as untreated, 0 = no growth, -100 = all killed)
EXPERIMENTAL SETUP: 10 µM unless noted
This is part of a sample that, as a whole, favours compounds with a hit. Of some 83,000 tested, about 20% had one in any assay.
Reported values of growth for individual entries
Kindly provide the numeric value in % only, without the unit symbol.

# count of solved cases: 4
[
  {
    "SMILES REPRESENTATION": "COc1ccc(Cl)cc1Nc1nc(C(F)(F)F)ccc1C(=O)N/N=C/c1c(Cl)cccc1Cl",
    "TARGET DESC": "MDA-MB-435 melanoma",
    "QUANTITATIVE READOUT": 62.7
  },
  {
    "SMILES REPRESENTATION": "COCCCNS(=O)(=O)c1ncnc2nc[nH]c12",
    "TARGET DESC": "MDA-MB-435 melanoma",
    "QUANTITATIVE READOUT": 107
  },
  {
    "SMILES REPRESENTATION": "COc1ccc(-c2cc(-c3cccnc3)nc(S(=O)(=O)CC(=O)Nc3ccc(C)cc3)c2C#N)cc1OC",
    "TARGET DESC": "MDA-MB-435 melanoma",
    "QUANTITATIVE READOUT": 98.6
  },
  {
    "SMILES REPRESENTATION": "Cc1ccc(NC(=O)c2sc3nc4c(cc3c2N)C(=O)CCC4)cc1",
    "TARGET DESC": "MDA-MB-435 melanoma",
    "QUANTITATIVE READOUT": 14.6
  }
]

Query :: Request: growth, test system MDA-MB-435 melanoma, entry CC(C)Sc1nc(-c2ccc(Br)cc2)c(C#N)c(N2CCCCC2)n1
Result :: 95.7

Query :: Request: growth, test system MDA-MB-435 melanoma, entry Cc1cc(C)c2c(N)c3cccc(C)c3nc2n1
Result :: 2.84

Query :: Request: growth, test system MDA-MB-435 melanoma, entry Nc1ccc2c(c1)C(=O)c1cc(Cl)c(Cl)cc1-2
Result :: 102

Query :: Request: growth, test system MDA-MB-435 melanoma, entry N#Cc1c(-c2ccccc2)cc(-c2ccccc2)n(CCC(=O)O)c1=O
Result :: -9.89

Query :: Request: growth, test system MDA-MB-435 melanoma, entry c1ccc(-c2nc(Nc3nccnn3)c3ccccc3n2)cc1
Result :: 101

Query :: Request: growth, test system MDA-MB-435 melanoma, entry Nc1nc(Nc2ccccc2SSc2ccccc2Nc2nc(N)nc(C(Cl)(Cl)Cl)n2)nc(C(Cl)(Cl)Cl)n1
Result :: 82.9

Query :: Request: growth, test system MDA-MB-435 melanoma, entry CCN(CC)c1ccc(N=C2C=CC(=O)C=C2NC(C)=O)cc1
Result :: 124

----------
Tested on: NCI-H226 lung
PROCEDURE DETAILS: NCI-60 one-dose screen, 48 h
EXPERIMENTAL SETUP: 10 µM unless noted
About 83,000 compounds went through this panel and 20% of them were active in at least one assay; those are over-represented in the sample as a whole. The source made the active and inactive calls. Rule for the calls: active = growth percent below 10; inactive = the rest.
Please reply with one of these outcomes: Yes for active, No for inactive

Query :: What outcome does the record of this test show for COc1cccc(-c2nc(-c3ccc(N)cc3)co2)c1 ?
Result :: No

Query :: What outcome does the record of this test show for Cc1cc(C)nc(NS(=O)(=O)c2ccc(Nc3nc4nc(SCc5ccccc5)nc(-c5ccc(O)cc5)c4c(=O)[nH]3)cc2)n1 ?
Result :: No

Query :: What outcome does the record of this test show for C(=C1c2ccccc2-c2ccccc21)c1ccncc1 ?
Result :: No

Query :: What outcome does the record of this test show for [N-]=[N+]=NCc1ncc(-c2ccc(C(F)(F)F)cc2)c(NC2CCCCCC2)n1 ?
Result :: No

Query :: What outcome does the record of this test show for COc1ccc2c(c1)c(CC(=O)[Se]C)c(C)n2C(=O)c1ccc(Cl)cc1 ?
Result :: Yes

Query :: What outcome does the record of this test show for Cc1cc(=O)oc2cc(OCCn3c(C)nn(-c4ccc(Cl)cc4)c3=O)ccc12 ?
Result :: No

Query :: What outcome does the record of this test show for CCN1CCN(c2nc(NNC(=O)Cc3ccccc3)nc(N3CCN(C(c4ccccc4)c4ccccc4)CC3)n2)CC1 ?
Result :: No

----------
System: K-562 leukemia
PROCEDURE DETAILS: NCI-60 one-dose screen, 48 h
EXPERIMENTAL SETUP: 10 µM unless noted
Method: Cells are grown in 96 well plates and exposed to the test compound for 48 hours. Compounds are tested at a single concentration, which is 10^-5 M for most compounds. The reported endpoint is percent growth (GI% or GIPRCNT), where numbers from 0 - 100% represent growth inhibition, and numbers from -100% - 0 represent cell death. For example, a value of 40 represents 60% growth inhibition. A value of 0 means no net growth occurred over the course of the experiment. […]
The panel holds about 83,000 compounds, 20% with a hit somewhere; the sample as a whole holds those more often. Activity calls are given as the source filed them. How the source made its calls: active means growth percent below 10; inactive means the rest.
Please reply with one of these outcomes: YES for active, NO for inactive

Query :: What outcome does the record of this test show for Cc1c2oc3c(C)ccc(C(=O)OC(C)C4NC(=O)C(C(C)C)N(C)C(=O)CN(C)C(=O)C5CCCN5C(=O)C(C(C)C)NC4=O)c3nc-2c(C(=O)OC(C)C2NC(=O)C(C(C)C)N(C)C(=O)CN(C)C(=O)C3CCCN3C(=O)C(C(C)C)NC2=O)c(N)c1=O (stereo not drawn) ?
Result :: YES

Query :: What outcome does the record of this test show for COc1ccccc1NC(=O)c1sc2nc3c(cc2c1N)C(=O)CCC3 ?
Result :: NO

Query :: What outcome does the record of this test show for CCCc1n(Cc2ccc3ccccc3c2)cc[n+]1Cc1ccc2ccccc2c1 ?
Result :: YES

Query :: What outcome does the record of this test show for O=C(Nc1ccc2c(c1)C(=O)c1ccccc1-2)c1ccccc1 ?
Result :: NO

Query :: What outcome does the record of this test show for c1ccc(-c2oc(-c3ccccc3)c3ccccc23)cc1 ?
Result :: NO

Query :: What outcome does the record of this test show for NS(=O)(=O)c1ccc(-n2ncc3c(SCc4ccccc4)ncnc32)cc1 ?
Result :: NO

Query :: What outcome does the record of this test show for C[C@]12CCC(=O)C=C1CC[C@H]1[C@@H]3C[C@@H](O)[C@](O)(C(=O)CO)[C@@]3(C)C[C@H](O)[C@@]12F ?
Result :: NO

Query :: What outcome does the record of this test show for N=C1c2nc3n(c2C(=O)c2nc4n(c21)CCCCC4)CCCCC3 ?
Result :: NO

----------
Tested on: A549/ATCC NSCLC
PROCEDURE DETAILS: NCI-60 one-dose screen, 48 h (100 = growth as untreated, 0 = no growth, -100 = all killed)
EXPERIMENTAL SETUP: 10 µM unless noted
The panel holds about 83,000 compounds, 20% with a hit somewhere; the sample as a whole holds those more often.
READOUT LABEL: growth (%)
Kindly provide the numeric value in % only, without the unit symbol.

# count of solved cases: 5
[
  {
    "MOLECULE": "CN(C)c1ncnc2c1ncn2C1CCCCO1 (stereo unspecified)",
    "TARGET DESC": "A549/ATCC NSCLC",
    "RESULT UNITS": "%",
    "QUANTITATIVE READOUT": 104
  },
  {
    "MOLECULE": "COc1ccc(/C=C2\\CCc3ccccc3C2=O)cc1",
    "TARGET DESC": "A549/ATCC NSCLC",
    "RESULT UNITS": "%",
    "QUANTITATIVE READOUT": 77.4
  },
  {
    "MOLECULE": "CC[C@@H](c1ccc(O)c(O)c1)[C@@H](CC)c1ccc(O)c(O)c1",
    "TARGET DESC": "A549/ATCC NSCLC",
    "RESULT UNITS": "%",
    "QUANTITATIVE READOUT": 107
  },
  {
    "MOLECULE": "Nc1ccc2c(c1)C(=O)c1cc(Cl)c(Cl)cc1-2",
    "TARGET DESC": "A549/ATCC NSCLC",
    "RESULT UNITS": "%",
    "QUANTITATIVE READOUT": 90.7
  },
  {
    "MOLECULE": "COc1ccc2c3c(ccc2c1)C(=O)/C(=C\\O)CC3",
    "TARGET DESC": "A549/ATCC NSCLC",
    "RESULT UNITS": "%",
    "QUANTITATIVE READOUT": 109
  }
]

Query :: Sample Cc1ccc(-c2c3c(N)c4c(nc3nc3c2c(C)nn3-c2ccccc2)CCC4)cc1 — what was its growth?
Result :: 32.9

Data provenance: PubChem BioAssay (NCI)
